Tested on: UACC-257 melanoma
method: NCI tumour cell line growth inhibition, 48 h
measurement-kind: TGI

Memo: COc1cc2c(c(O)c1OC)C(=O)C(Cc1ccc(O)cc1)CO2 (stereo unspecified) , reported TGI: > 100 µM

Entry under test: CCC(C(=O)C(=O)OC)P1(=O)OC(C)(C)CN1C(C)(C)C (stereo unspecified) . Its TGI was > 100 µM

C=CC(OCC)(OCC)OCC has a reported TGI of > 100 µM

compound Cc1ccccc1C(=O)N1CCN(C(=O)c2ccccc2C)CC1 , TGI observed: > 100 µM

Lab note: measured TGI of N#Cc1nc(NC(=O)c2ccccc2C(=O)O)c(C#N)[nH]1 was > 100 µM

Per the records, this compound ( Cc1cc(N(CCC#N)CCC#N)ccc1/C=C(\NC(=O)/C=C/c1ccccc1)C(=O)NN ) has TGI equal to > 100 µM

The recorded TGI for entry CSC(=S)N/N=C/c1nccc2ccccc12 equals 15.5 µM

TGI recorded for this compound, CCCCCCCCCc1nn2c(Cc3ccccc3)nnc2s1 , is 54.1 µM

For CC(=O)OCC1OC(N2C(=O)C(=O)c3ccccc32)C(OC(C)=O)C(OC(C)=O)C1OC(C)=O (stereo unspecified) the compound record lists TGI as > 100 µM

Note to self: TGI recorded for O=C(O)[C@@H](Cc1ccc2ccccc2c1)NC(=O)n1c2ccccc2c2ccccc21 was > 100 µM

Form: compound = COc1ccc(C(=O)NCCN(C)C)c2nc3ccccc3nc12 ; TGI = 13 µM
